Value source: ChEMBL document CHEMBL3120127

assay: Oral bioavailability in Sprague-Dawley rat at 19 mg/kg; type: ADME, organism-based; conditions: in vivo
MEASURED_QUANTITY: bioavailability (%)

* CNc1nc(NCCCN(C)C)c2sc(-c3ccccc3)cc2n1 | 34

---

Reported solubility values for a set of compounds
assay: Solubility of the compound in phosphate buffer at pH 6.5 by HPLC-DAD-MS analysis; assay type: physicochemical
MEASURED_QUANTITY: solubility (µg/mL)

- CNc1nc(NCCCN(C)C)c2sc(-c3cc(C(F)(F)F)cc(C(F)(F)F)c3)cc2n1: 130
- CNc1nc(NCCCN(C)C)c2oc(-c3ccccc3)cc2n1: 203
- CNc1nc(NCCCN(C)C)c2cc(-c3ccccc3)sc2n1: 184
- CNc1nc(NCCCN(C)C)c2sc(-c3ccc(C(F)(F)F)cc3)cc2n1: 177
- CNc1nc(NCCCN(C)C)c2sc(-c3cccc(C(F)(F)F)c3)cc2n1: 160
- CNc1nc(NCCCN(C)C)c2sc(-c3ccc(-n4cccn4)cc3)cc2n1: 191
- CNc1nc(NCCCN(C)C)c2sc(-c3cncnc3)cc2n1: 194
- CNc1nc(NCCCN(C)C)c2sc(-c3ccoc3)cc2n1: 203

---

assay: Solubility of the compound in phosphate buffer at pH 6.5 by nephlometric analysis; assay type: physicochemical
# reported solubility kinetic; entries follow
MEASURED_QUANTITY: solubility kinetic (µg/mL)

* CNc1nc(NCCCN(C)C)c2sc(-c3ccc4nonc4c3)cc2n1 | 25
* CNc1nc(NCCCN(C)C)c2sc(-c3ccc(C(=O)N4CCOCC4)cc3)cc2n1 | 25
* CNc1nc(NCCCN(C)C)c2sc(-c3ccc(NS(C)(=O)=O)cc3)cc2n1 | 25

---

experiment: Plasma concentration in Swiss outbred mouse infected with Plasmodium berghei at 50 mg/kg, po measured at 1 hr; type: ADME, organism-based; set-up: dose 50 mg/kg, route oral
Documented concentration at 1 h across a set of compounds
MEASURED_QUANTITY: concentration at 1 h (nM)

- CNc1nc(NCCCN(C)C)c2sc(-c3ccc(F)cc3)cc2n1: 140
- CNc1nc(NCCCN(C)C)c2sc(-c3ccc(C(F)(F)F)cc3)cc2n1: 410

---

assay: Volume of distribution at steady state in Sprague-Dawley rat blood at 4 mg/kg, iv; assay type: ADME, organism-based; parameters: dose 4 mg/kg, route intravenous; conditions: read-out: Vdss
MEASURED_QUANTITY: Vd

• CNc1nc(NCCCN(C)C)c2sc(-c3ccccc3)cc2n1 = 37 L/kg

---

assay: Solubility of the compound in 0.01 M HCl at pH 2; type: physicochemical
MEASURED_QUANTITY: solubility

- CNc1nc(NCCCN(C)C)c2sc(-c3ccc(N4CCOCC4)cc3)cc2n1: 12.5 µg/mL
- CNc1nc(NCCCN(C)C)c2sc(-c3ccc(C(F)(F)F)cc3)cc2n1: 240 µg/mL
- CNc1nc(NCCCN(C)C)c2sc(-c3ccc(N4CCNCC4)cc3)cc2n1: > 100 µg/mL
- CNc1nc(NCCCN(C)C)c2sc(-c3ccc(NS(C)(=O)=O)cc3)cc2n1: > 100 µg/mL
- CNc1nc(NCCCN(C)C)c2sc(-c3ccccc3)cc2n1: > 100 µg/mL
- CNc1nc(NCCCN(C)C)c2sc(-c3cccc(OC(F)(F)F)c3)cc2n1: > 100 µg/mL
- CNc1nc(NCCCN(C)C)c2sc(-c3ccoc3)cc2n1: 221 µg/mL
- CNc1nc(NCCCN(C)C)c2sc(-c3ccc(C#N)cc3)cc2n1: > 100 µg/mL
